assay: qHTS Assay for Rab9 Promoter Activators; conditions: Huh7 Rab9 promoter-luciferase reporter, luminescence, 24 h; series mostly up to 9.22 µM; further: nearly all actives have a fitted effect of over 60% in size
Among all 320,000 compounds or so, about 9,100 (2.8%) were called active. Not shown: some 3% with an inconclusive outcome. What follows is part of a selection rich in actives, with near analogues and random picks from the rest.
MEASURED_METRIC: outcome

COc1ccc2c(C)cc(SCC(=O)NCC3CCCO3)nc2c1 (stereo not drawn)    inactive
CSCCC(NC(=O)c1ccccc1)C(=O)N1CCCCCCC1 (stereo not drawn)    inactive
Cc1c(NC(=O)Nc2ccccc2)cccc1[N+](=O)[O-]    inactive
